assay: Phase 2 toxicokinetics of brincidofovir and cidofovir in plasma; assay type: in vivo, Sprague-Dawley CD rats; conditions: female, Sprague-Dawley CD, rat, plasma, intravenous, 1 mg/kg, brincidofovir 1 mg/kg, Female, Day 7, 0 h; read-out: brincidofovir Mean Concentration (MC)

>  <Item Smiles>
CCCCCCCCCCCCCCCCOCCCOP(=O)(O)CO[C@H](CO)Cn1ccc(N)nc1=O

>  <concentration at 0 h (ng/mL)>
0

$$$$

---

experiment: Phase 2 toxicokinetics of brincidofovir and cidofovir in plasma; type: in vivo, Sprague-Dawley CD rats; conditions: female, Sprague-Dawley CD, rat, plasma, intravenous, 1 mg/kg, brincidofovir 1 mg/kg, Female, Day 7, 2 h; read-out: brincidofovir Mean Concentration (MC)
Measurement Type: concentration at 2 h (ng/mL)

>  <Compound>
CCCCCCCCCCCCCCCCOCCCOP(=O)(O)CO[C@H](CO)Cn1ccc(N)nc1=O [Brincidofovir]

>  <Unit Name>
ng/mL

>  <Measured>
95.4

$$$$
